molecular target: Sodium-dependent dopamine transporter (Rattus norvegicus, UniProt P23977); experiment: Inhibition of [3H]DA binding to dopamine transporter of rat brain synaptosomes; assay type: subcellular
Sequence (P23977 whole entry): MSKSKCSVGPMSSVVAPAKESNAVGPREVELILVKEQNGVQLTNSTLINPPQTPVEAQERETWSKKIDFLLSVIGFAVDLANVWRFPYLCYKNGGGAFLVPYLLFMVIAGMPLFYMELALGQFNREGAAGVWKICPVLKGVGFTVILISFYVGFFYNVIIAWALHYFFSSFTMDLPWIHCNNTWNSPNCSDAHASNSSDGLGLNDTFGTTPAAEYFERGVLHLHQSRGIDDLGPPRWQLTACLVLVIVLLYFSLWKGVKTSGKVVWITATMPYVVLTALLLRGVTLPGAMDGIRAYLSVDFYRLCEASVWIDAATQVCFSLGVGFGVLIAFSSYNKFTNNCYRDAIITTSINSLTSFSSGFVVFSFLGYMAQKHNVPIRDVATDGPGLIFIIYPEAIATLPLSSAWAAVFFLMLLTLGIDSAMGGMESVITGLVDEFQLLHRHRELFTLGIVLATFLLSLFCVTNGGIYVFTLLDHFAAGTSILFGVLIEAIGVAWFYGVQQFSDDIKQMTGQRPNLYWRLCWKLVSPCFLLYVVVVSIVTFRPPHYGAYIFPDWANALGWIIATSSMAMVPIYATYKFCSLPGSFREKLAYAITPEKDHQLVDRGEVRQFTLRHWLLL
Exam item: assign Y to entries whose Ki is below 700 nM and N to entries at or above 700 nM. Note that a value of exactly 700 nM receives N.

I'd appreciate it if you could check whether Clc1ccc([C@@H]2CCN3C/C(=N\OCCCc4ccccc4)C2C3)cc1 (some centres not stated) has Ki smaller than 700 nM.
Y

Bench note: check whether CN1CCC(c2ccc(Cl)cc2)C(C(=O)OCCC(c2ccccc2)c2ccccc2)C1 (single isomer, unassigned; (+)) shows Ki below 700 nM
N

Field: below-cutoff. Rule: recorded Ki strictly less than 700 nM. Subject: CN1CCC(c2ccc(Cl)cc2)C(C(=O)OCCCCCc2ccccc2)C1 (single isomer, unassigned; (+))
Y

Does the reported Ki of the following molecule sit strictly below 700 nM? CN1CCC(c2ccc(Cl)cc2)C(C(=O)OCCCc2ccccc2)C1 (single isomer, unassigned; (+))
N

Field: below-cutoff. Rule: recorded Ki strictly less than 700 nM. Subject: CC(C)(C)O/N=C1\CN2CC[C@@H](c3ccc(Cl)cc3)C1C2 (some centres not stated)
N

A record lists Clc1ccc([C@@H]2CCN3C/C(=N\OCc4ccccc4)C2C3)cc1 (some centres not stated) . Is its Ki below 700 nM?
N

Below 700 nM on Ki? Entry COC(=O)C1CN(C)CCC1c1ccc(Cl)cc1 (single isomer, unassigned; (+))
Y

----------
biological target: Sodium-dependent dopamine transporter (Rattus norvegicus, UniProt P23977); assay: Inhibition of [3H]- Mazindol binding to dopamine transporter of rat striatal membrane.
ATTRIBUTE MEASURED: Ki (µM)
Respond with the bare value in µM.

Form field - read-out: Ki; system: Sodium-dependent dopamine transporter (Rattus norvegicus, UniProt P23977); submitted item: CN1CCC(c2ccc(Cl)cc2)C(C(=O)OCCC(c2ccccc2)c2ccccc2)C1 (single isomer, unassigned; (+))
0.42

Which Ki is reported with Sodium-dependent dopamine transporter (Rattus norvegicus, UniProt P23977) for this entry: Clc1ccc([C@@H]2CCN3C/C(=N\OCCCc4ccccc4)C2C3)cc1 (stereo partly specified) ?
0.053

Notebook entry, Sodium-dependent dopamine transporter (Rattus norvegicus, UniProt P23977) assay: Ki of CN1CCC(c2ccc(Cl)cc2)C(C(=O)OCCCc2ccccc2)C1 (single isomer, unassigned; (+)) = ?
1.49

GET /values?readout=Ki&system=Sodium-dependent dopamine transporter (Rattus norvegicus, UniProt P23977)&item= COC(=O)C1CN(C)CCC1c1ccc(Cl)cc1 (single isomer, unassigned; (+))
0.248

Short answer please: Ki, Sodium-dependent dopamine transporter (Rattus norvegicus, UniProt P23977), entry CN1CCC(c2ccc(Cl)cc2)C(C(=O)OCCCCCc2ccccc2)C1 (single isomer, unassigned; (+))
0.052

Provide the documented Ki with Sodium-dependent dopamine transporter (Rattus norvegicus, UniProt P23977) as the system for CC(C)(C)O/N=C1\CN2CC[C@@H](c3ccc(Cl)cc3)C1C2 (stereo partly specified)
0.641

----------
target: Norepinephrine transporter (Rattus norvegicus); test: Inhibition of [3H]NE binding to norepinephrine transporter of rat brain synaptosomes
Give log10 of Ki for every item shown.
// units: nM (pre-log); metric: Ki; scale: log10

Please give the measured log10 of Ki for this compound: CO/N=C1\CN2CC[C@H](c3ccc(Cl)cc3)C1C2 (stereo in doubt; (-)-6)
2.48

Could you share which log10 of Ki value was measured for CO/N=C1/CN2CC[C@@H](c3ccc(Cl)cc3)C1C2 (stereo not given in full) ?
2.37

Reported log10 of Ki for CN1CCC(c2ccc(Cl)cc2)C(C(=O)OCCCc2ccccc2)C1 (single isomer, unassigned; (+)) : what is it?
1.86

Consider the compound CO/N=C1/CN2CC[C@H](c3ccc(Cl)cc3)C1C2 (stereo not given in full) and give its measured log10 of Ki.
2.38

Dear colleague, I am looking for the recorded log10 of Ki of the following compound: Clc1ccc([C@@H]2CCN3C/C(=N\OCc4ccccc4)C2C3)cc1 (stereo not given in full)
3.19

----------
target: Sodium-dependent serotonin transporter (Rattus norvegicus); experiment: Inhibition of [3H]-5-HT binding to serotonin transporter of rat brain synaptosomes
Sequence (P31652 whole entry): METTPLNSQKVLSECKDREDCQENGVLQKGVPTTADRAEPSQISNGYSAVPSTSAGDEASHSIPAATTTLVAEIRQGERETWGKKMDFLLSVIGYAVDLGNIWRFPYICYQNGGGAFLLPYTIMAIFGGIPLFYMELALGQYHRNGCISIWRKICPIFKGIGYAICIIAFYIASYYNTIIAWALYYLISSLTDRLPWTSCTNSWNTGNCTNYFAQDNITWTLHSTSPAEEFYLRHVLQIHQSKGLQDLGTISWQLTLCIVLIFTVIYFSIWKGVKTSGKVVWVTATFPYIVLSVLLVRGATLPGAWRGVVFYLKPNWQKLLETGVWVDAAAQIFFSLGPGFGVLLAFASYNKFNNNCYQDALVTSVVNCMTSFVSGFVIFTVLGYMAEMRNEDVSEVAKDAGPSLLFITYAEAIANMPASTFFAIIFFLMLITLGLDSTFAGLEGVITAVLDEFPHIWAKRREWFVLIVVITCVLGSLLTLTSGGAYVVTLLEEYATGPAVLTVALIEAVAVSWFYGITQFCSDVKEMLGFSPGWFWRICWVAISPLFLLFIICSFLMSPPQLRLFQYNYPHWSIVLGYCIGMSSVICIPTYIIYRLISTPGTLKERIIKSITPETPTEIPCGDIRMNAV
ATTRIBUTE MEASURED: Ki (nM)
Write the value in nM as a bare number.

Entry CC(C)(C)O/N=C1\CN2CC[C@@H](c3ccc(Cl)cc3)C1C2 (some centres undefined) has what Ki?
137

Which Ki is listed for CO/N=C1/CN2CC[C@H](c3ccc(Cl)cc3)C1C2 (some centres undefined) ?
856

Returns the measured Ki for the input compound. Input: CO/N=C1\CN2CC[C@H](c3ccc(Cl)cc3)C1C2 (stereo in doubt; (-)-6)
503

Can you share its Ki? I mean this compound: Clc1ccc([C@@H]2CCN3C/C(=N\OCCCc4ccccc4)C2C3)cc1 (some centres undefined)
292

Entry Clc1ccc([C@@H]2CCN3C/C(=N\OCc4ccccc4)C2C3)cc1 (some centres undefined) : reported Ki = ?
117

Dear colleague, I am looking for the recorded Ki of the following compound: CO/N=C1\CN2CC[C@@H](c3ccc(Cl)cc3)C1C2 (single isomer, unassigned; (+))
1790

Name the recorded Ki for CN1CCC(c2ccc(Cl)cc2)C(C(=O)OCCC(c2ccccc2)c2ccccc2)C1 (single isomer, unassigned; (+)) .
2590

What does the record list as Ki for CO/N=C1\CN2CC[C@@H](c3ccc(Cl)cc3)C1C2 (stereo in doubt; (-)-7) ?
2530

Find the recorded Ki belonging to COC(=O)C1CN(C)CCC1c1ccc(Cl)cc1 (single isomer, unassigned; (+)) and report it.
5880

----------
biological target: Sodium-dependent serotonin transporter (Rattus norvegicus); assay: Inhibition of [3H]-5-HT binding to serotonin transporter of rat brain synaptosomes
Task for the reader: assign each of the following molecules its reported pKi.
Would you please state pKi, meaning minus log10 of the concentration in mol/L, as a bare number?

Quick check: pKi of CN1CCC(c2ccc(Cl)cc2)C(C(=O)OCCCCCc2ccccc2)C1 (single isomer, unassigned; (+)) ?
5.75

Consider the molecule shown here: CO/N=C1\CN2CC[C@H](c3ccc(Cl)cc3)C1C2 (stereo in doubt; (+)-7) What is its recorded pKi?
5.58

Returns the measured pKi for the input molecule. Input: CN1CCC(c2ccc(Cl)cc2)C(C(=O)OCCCc2ccccc2)C1 (single isomer, unassigned; (+))
5.67

----------
target: Norepinephrine transporter (Rattus norvegicus, UniProt Q9WTR4); test: Inhibition of [3H]NE binding to norepinephrine transporter of rat brain synaptosomes
Sequence (Q9WTR4 whole entry): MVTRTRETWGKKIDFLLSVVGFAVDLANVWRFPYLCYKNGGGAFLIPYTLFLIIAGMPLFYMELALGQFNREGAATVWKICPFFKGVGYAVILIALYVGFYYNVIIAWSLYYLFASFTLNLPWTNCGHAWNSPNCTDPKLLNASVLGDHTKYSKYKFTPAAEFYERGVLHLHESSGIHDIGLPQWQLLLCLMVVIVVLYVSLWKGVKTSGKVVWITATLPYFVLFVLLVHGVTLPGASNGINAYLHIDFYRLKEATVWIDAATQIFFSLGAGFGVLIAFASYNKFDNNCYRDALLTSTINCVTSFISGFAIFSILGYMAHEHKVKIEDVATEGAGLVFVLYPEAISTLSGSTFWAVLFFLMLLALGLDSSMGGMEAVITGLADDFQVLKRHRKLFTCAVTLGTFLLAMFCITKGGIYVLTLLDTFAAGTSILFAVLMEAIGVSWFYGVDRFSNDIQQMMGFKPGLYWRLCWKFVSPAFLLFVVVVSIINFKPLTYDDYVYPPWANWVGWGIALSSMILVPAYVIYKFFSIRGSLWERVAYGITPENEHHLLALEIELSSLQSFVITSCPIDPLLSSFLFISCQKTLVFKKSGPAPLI
pKi: −log10 of the molar value.
Decision: pKi compared against 6; not below it gives Met, below it gives Not met.

Does the reported pKi for Clc1ccc([C@@H]2CCN3C/C(=N\OCCCc4ccccc4)C2C3)cc1 (stereo partly drawn) fall at or above the 6 mark?
Met

Check the entry COC(=O)C1CN(C)CCC1c1ccc(Cl)cc1 (single isomer, unassigned; (+)) : does pKi equal or exceed 6?
Met

Can CN1CCC(c2ccc(Cl)cc2)C(C(=O)OCCCCCc2ccccc2)C1 (single isomer, unassigned; (+)) be said to have pKi at or above 6?
Met

Determine whether this compound has pKi no lower than 6: CO/N=C1\CN2CC[C@@H](c3ccc(Cl)cc3)C1C2 (single isomer, unassigned; (+))
Not met

Reported pKi at or above 6? CN1CCC(c2ccc(Cl)cc2)C(C(=O)OCCC(c2ccccc2)c2ccccc2)C1 (single isomer, unassigned; (+))
Not met

Record CO/N=C1\CN2CC[C@@H](c3ccc(Cl)cc3)C1C2 (stereo in doubt; (-)-7) ; criterion: pKi no lower than 6. Met?
Met

Would you say CC(C)(C)O/N=C1\CN2CC[C@@H](c3ccc(Cl)cc3)C1C2 (stereo partly drawn) shows pKi at minimum 6?
Met
